# Tgt: human PAH with the R408W mutation (Homo sapiens, UniProt P00439, R408W)
# Construct: expressed in transfected cells
# Sequence (P00439 whole entry R408W): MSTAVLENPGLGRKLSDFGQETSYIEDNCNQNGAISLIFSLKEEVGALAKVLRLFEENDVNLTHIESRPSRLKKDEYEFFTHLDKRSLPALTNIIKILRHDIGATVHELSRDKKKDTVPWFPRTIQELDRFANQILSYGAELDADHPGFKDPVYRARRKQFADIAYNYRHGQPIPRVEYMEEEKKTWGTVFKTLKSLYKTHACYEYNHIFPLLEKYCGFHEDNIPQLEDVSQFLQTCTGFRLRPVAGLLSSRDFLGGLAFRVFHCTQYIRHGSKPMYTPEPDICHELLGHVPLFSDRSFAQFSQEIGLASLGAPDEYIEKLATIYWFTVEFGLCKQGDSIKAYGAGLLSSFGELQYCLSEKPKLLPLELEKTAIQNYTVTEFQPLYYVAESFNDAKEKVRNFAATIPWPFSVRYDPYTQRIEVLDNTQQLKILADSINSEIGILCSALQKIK
# Measurement Notes: Cell Based Phenylalanine Flux Assay;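 also: after compound treatment, cells received sepiapterin plus isotope-labelled Phenylalanine for 4 hours, then labelled Tyrosine in the medium was quantified, 10-point 2-fold dilution series run in duplicate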
# Assay Setup: A375 cells expressing human R408W PAH; 24 hrs compound incubation; 13C-Tyrosine by LC-MS; average where tested multiple times; read-out: AC50

Compound Structure	AC50
O=C(c1nnc(-c2cccnc2)o1)N1CCc2[nH]cnc2[C@H]1c1cc2c(C(F)(F)F)cccn2n1	< 500 nM
Cc1nc(C(C)(C)F)oc1C(=O)N1CCc2[nH]cnc2[C@H]1c1cc2cccc(C)n2n1	< 500 nM
Cc1cccn2nc([C@H]3c4nc[nH]c4CCN3C(=O)c3oc(C(C)(C)O)nc3C(F)F)cc12	1000 to 5000 nM
O=C(c1oc(-c2ccccn2)nc1C1CC1)N1CCc2[nH]cnc2[C@@H]1c1cc2ccccn2n1	1000 to 5000 nM
Cc1ncccc1-c1nnc(C(=O)N2CCc3[nH]cnc3[C@H]2c2cc3cccc(F)n3n2)o1	< 500 nM
Cc1cccc(-c2nnc(C(=O)N3CCc4[nH]cnc4[C@H]3c3cc4c(F)cccn4n3)o2)n1	< 500 nM
Cn1ccc(-c2nnc(C(=O)N3CCc4[nH]cnc4[C@H]3c3cc4cccc(C(F)(F)F)n4n3)o2)n1	< 500 nM
